Test system: NCI-H460 lung
ASSAY PROTOCOL: NCI tumour cell line growth inhibition, 48 h
Entries annotated with measured TGI

- CC12OC(c3ccccc3)=CC(c3ccc(Cl)cc3)=C1C(c1ccccc1)=CC2=O (centres undefined): > 100 µM
- COC(=O)C(Cc1cn(C(C)=O)c2ccccc12)P(=O)(OC)OC (centres undefined): > 100 µM
- CN(C)C=C1C(=O)c2c(Br)sc(Br)c2C1=O: 48.7 µM
- CNc1c2cccc(C)c2nc2c(C(=O)NCCN(C)C)cccc12: 0.206 µM
- C[C@]12C[C@H](c3ccccc3)Nc3ccccc3N1C(c1ccccc1)=NO2: > 100 µM

Q. # input compound: CC(=O)c1c(C)[nH]c(-c2nc3ccc(N4CCN(C)CC4)cc3[nH]2)c1-c1ccc(OCC2CCOCC2)cc1 ; wanted: its TGI
A. 19.4 µM

Q. How about NNC(=O)/C(=C/c1ccc(Cl)c(Cl)c1)NC(=O)c1ccccc1 ?
A. > 100 µM

Q. Please answer likewise for COc1ccc(N2C(=O)CC(Cl)C2=O)cc1 (centres undefined)
A. > 100 µM

Q. Okay, and COc1ccc(CN(C)c2ccc(CO)c(Cl)c2)cc1 ?
A. 15 µM

Q. Repeat for the following compound: CC(C)(C#N)c1cc(Cn2cncn2)cc(C(C)(C)C#N)c1
A. > 10000 µM

Q. And what about the compound COc1c2nc(CCl)[nH]c(=O)c2c(OC)c2nc(CCl)[nH]c(=O)c12 ?
A. > 100 µM

Q. Lookup COc1cc(Cl)c2c3c(c(C(C)=O)oc13)CCC2
A. > 100 µM

Q. Record: CC(=O)C(I(OS(=O)(=O)c1ccc(C)cc1)c1ccccc1)=P(c1ccccc1)(c1ccccc1)c1ccccc1
A. > 100 µM

Q. Next entry: CCN(CC)CCC(=O)NC1c2ccc(Cl)cc2Oc2c(C)cccc21 (centres undefined)
A. 31.7 µM

* * *

Tested on: MDA-N
ASSAY PROTOCOL: NCI tumour cell line growth inhibition, 48 h
Recorded TGI values for a group of compounds are listed next.

* O=c1[nH]c(C23CC4CC(CC(C4)C2)C3)cc2c1c(=O)oc1ccccc12 | > 59.3 µM
* COc1cc(S(=O)(=O)Nc2nc(-c3ccc(N4C(=O)C(CC(=O)O)SC4c4ccccc4O)cc3)cs2)ccc1Cl (stereo unspecified) | > 100 µM
* CCN(CC)c1cc2c3c(c1)CCCN3CCC2 | > 10 µM
* COc1ccc2cc(Oc3ccc(Cl)cc3)c(=O)oc2c1 | > 100 µM
* CN(C)C=Nc1cccc2nsnc12 | > 100 µM

Q. API: value(readout=TGI, system=MDA-N) for record CCOC(=O)C(Cl)(NC(=O)NC(Cl)(C(=O)OCC)C(F)(F)F)C(F)(F)F (stereo unspecified)
A. > 100 µM

* * *

Test system: LOX IMVI melanoma
ASSAY PROTOCOL: NCI tumour cell line growth inhibition, 48 h
Item-by-item account of TGI

Check out these entries, answers already filled in.
• COc1cc(OCc2ccc3nc(-c4ccccc4)c(Cl)nc3c2)cc(OC)c1OC = > 100 µM
• CCOC(=O)Nc1nc2ccc(Cn3cccc3)cc2[nH]1 = > 100 µM

Q. Given NC(=O)C(=Cc1ccc(C(O)P(=O)(O)O)cc1)C(N)=O (stereo not drawn) , state its recorded TGI.
A. > 100 µM
